Measured values drawn from paper PMC10520499 for this set.

biological target: UniProt:P06401; assay: PR-B transactivation (CHO, MMTV-LUC); settings: PR-B; set of 6 experiments; Promegestone 1.0 nM; read-out: average IC50, antagonism
Sequence (P06401 whole entry): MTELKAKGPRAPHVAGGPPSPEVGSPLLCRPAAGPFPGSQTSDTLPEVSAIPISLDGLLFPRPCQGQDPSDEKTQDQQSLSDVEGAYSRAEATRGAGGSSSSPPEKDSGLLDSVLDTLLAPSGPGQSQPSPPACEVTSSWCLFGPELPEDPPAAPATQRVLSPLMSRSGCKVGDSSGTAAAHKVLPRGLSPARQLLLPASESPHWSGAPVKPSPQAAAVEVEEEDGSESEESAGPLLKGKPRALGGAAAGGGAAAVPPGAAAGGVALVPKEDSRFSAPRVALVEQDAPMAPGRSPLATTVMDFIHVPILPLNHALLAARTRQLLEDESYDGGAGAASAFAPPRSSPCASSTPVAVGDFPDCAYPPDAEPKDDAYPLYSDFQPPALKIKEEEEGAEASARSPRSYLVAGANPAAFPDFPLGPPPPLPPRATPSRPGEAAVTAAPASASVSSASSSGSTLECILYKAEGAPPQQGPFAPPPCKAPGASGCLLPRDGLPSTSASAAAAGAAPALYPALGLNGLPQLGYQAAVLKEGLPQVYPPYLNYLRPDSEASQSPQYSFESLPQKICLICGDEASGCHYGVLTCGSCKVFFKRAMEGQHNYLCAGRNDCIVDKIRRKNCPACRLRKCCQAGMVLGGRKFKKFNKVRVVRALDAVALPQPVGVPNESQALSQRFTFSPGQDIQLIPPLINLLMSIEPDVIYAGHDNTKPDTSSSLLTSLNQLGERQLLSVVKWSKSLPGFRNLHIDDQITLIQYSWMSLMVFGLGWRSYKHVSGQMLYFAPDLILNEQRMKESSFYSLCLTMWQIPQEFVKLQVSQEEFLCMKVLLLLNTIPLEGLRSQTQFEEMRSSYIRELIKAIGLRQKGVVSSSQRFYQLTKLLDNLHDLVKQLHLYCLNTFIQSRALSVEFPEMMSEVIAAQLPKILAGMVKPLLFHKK
pIC50: −log10 of the molar value.
measured.endpoint: pIC50

1. C[C@]12C[C@H](c3ccc(-c4ccoc4)cc3)C3=C4CCC(=O)C=C4CC[C@H]3[C@@H]1CC[C@]21OCCC1=C(F)F [EC313] | 8.60

###

molecular target: hGR-LBD purified recombinant protein (Homo sapiens, UniProt P04150); assay: Competitive binding, GR ligand binding domain; conditions: hGR-LBD purified recombinant protein
Sequence (P04150 524-758 limits assumed): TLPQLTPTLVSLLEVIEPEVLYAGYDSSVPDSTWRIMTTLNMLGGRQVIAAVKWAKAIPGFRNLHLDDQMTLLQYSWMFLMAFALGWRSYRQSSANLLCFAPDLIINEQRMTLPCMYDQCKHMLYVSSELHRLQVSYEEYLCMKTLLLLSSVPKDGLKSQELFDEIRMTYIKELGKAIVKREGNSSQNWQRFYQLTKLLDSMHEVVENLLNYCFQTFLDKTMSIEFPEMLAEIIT
measured.endpoint: IC50 (nM)

1. C[C@]12C[C@H](c3ccc(-c4ccoc4)cc3)C3=C4CCC(=O)C=C4CC[C@H]3[C@@H]1CC[C@]21OCCC1=C(F)F | 19.1
